Hey, just so you know, these numbers are from patent US4139531A.

Test: Maximum tolerance dosage (MTD), mouse
Settings: in vivo, iv
property-label: MTD (mg/kg)

- compound: "CC(C)NCCCNc1c2ccccc2nc2cccc([N+](=O)[O-])c12.Cl.Cl [Example C-846]"
  recorded-value: 1.85

* * *

Test: Acute toxicity, LD50, rat
Details: in vivo, iv, observations over 72 hours

- smiles-input: "CC(C)NCCCNc1c2ccccc2nc2cccc([N+](=O)[O-])c12.Cl.Cl"
  LD50 at 72 h: "0.95 mg/kg"

* * *

Assay: Maximum tolerance dosage (MTD), mouse
Conditions: in vivo, po

- smiles-input: "CC(C)NCCCNc1c2ccccc2nc2cccc([N+](=O)[O-])c12.Cl.Cl"
  readout-units: "mg/kg"
  MTD: 27.2

* * *

Assay: Acute toxicity, LD50, rat
Details: in vivo, po, observations over 72 hours

- compound: "CC(C)NCCCNc1c2ccccc2nc2cccc([N+](=O)[O-])c12.Cl.Cl [Example C-846]"
  LD50 at 72 h (mg/kg): 127
